Target: native human ESRRG protein (Homo sapiens)
Sequence (P62508 1-458): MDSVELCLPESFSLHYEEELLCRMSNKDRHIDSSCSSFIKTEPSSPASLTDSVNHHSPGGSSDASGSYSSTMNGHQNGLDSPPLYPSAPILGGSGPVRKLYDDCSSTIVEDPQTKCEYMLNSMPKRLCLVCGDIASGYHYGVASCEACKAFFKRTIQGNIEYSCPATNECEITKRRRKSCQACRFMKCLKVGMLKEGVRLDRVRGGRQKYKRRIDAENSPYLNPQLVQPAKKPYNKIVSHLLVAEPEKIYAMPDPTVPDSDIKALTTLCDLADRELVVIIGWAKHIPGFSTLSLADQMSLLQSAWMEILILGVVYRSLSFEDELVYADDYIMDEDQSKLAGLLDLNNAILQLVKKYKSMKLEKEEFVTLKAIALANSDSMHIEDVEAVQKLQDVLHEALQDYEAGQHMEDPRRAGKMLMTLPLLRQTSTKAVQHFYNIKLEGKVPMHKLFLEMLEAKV
Test: peptide microarray screening for ESRRG binding (Iteration 1 and 2)
Conditions: Iteration 1 primary screen; fluorescence intensity units
Binarize Sample A (Bkgd) Signal at 30; below is Y, at or above is N.

ANNVLLLH ... N
Ac-IKQNHNNS-NH2 (C-terminus assumed) ... Y
Ac-IKQDHNNS-NH2 (C-terminus assumed) ... Y

### Prompt For KSLLQQLL , is the recorded Sample A (Bkgd) Signal below the cut-off of 30?
### Response N

### Prompt Given the entry ANNLSLLH , would its reported Sample A (Bkgd) Signal be below 30?
### Response Y

### Prompt Bench note: check whether ANNFLLLH shows Sample A (Bkgd) Signal below 30
### Response N

### Prompt Strictly below 30 in Sample A (Bkgd) Signal? ANNVKLLH
### Response N

### Prompt Take the substance NSLRSHLL and say whether its Sample A (Bkgd) Signal is less than 30.
### Response Y

### Prompt Hello, I'm reviewing records and need to know if Sample A (Bkgd) Signal of NSLLQHLL is below 30. Could you check?
### Response Y

### Prompt Does this substance meet the criterion Sample A (Bkgd) Signal < 30? Ac-NIKVNANN-NH2 (C-terminus assumed)
### Response Y

----------
Biological target: native human ESRRG protein (Homo sapiens)
Sequence (P62508 1-458): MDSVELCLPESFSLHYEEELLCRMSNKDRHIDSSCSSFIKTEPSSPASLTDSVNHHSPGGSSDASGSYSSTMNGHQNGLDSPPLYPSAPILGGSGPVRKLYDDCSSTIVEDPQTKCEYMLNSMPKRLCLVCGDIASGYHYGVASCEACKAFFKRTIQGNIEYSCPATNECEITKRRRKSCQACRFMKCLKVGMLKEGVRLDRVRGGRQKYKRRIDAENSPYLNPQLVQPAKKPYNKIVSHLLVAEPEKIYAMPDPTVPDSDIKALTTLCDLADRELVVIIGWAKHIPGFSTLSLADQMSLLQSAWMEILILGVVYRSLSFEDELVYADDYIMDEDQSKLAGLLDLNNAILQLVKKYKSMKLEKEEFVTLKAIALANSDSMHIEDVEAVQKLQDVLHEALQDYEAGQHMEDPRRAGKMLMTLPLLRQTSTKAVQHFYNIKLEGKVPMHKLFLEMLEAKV
Assay: peptide microarray screening for ESRRG binding (Iteration 1 and 2)
Conditions: Iteration 2 iterative screen; fluorescence intensity units
reported.property: Sample B (Probe) Signal

Here's what some known entries look like.
IFLLQQDN ... 1,007.54
WIKLKQND ... 2,343.96

Hey, can you go through the list below and give me Sample B (Probe) Signal for every item?
1. Ac-LYLLKHHP-NH2 (C-terminus assumed)
2. WANYLLPP

### Response
1. 2,527.00
2. 2,860.10

----------
Molecular target: native human ESRRG protein (Homo sapiens)
Sequence (P62508 1-458): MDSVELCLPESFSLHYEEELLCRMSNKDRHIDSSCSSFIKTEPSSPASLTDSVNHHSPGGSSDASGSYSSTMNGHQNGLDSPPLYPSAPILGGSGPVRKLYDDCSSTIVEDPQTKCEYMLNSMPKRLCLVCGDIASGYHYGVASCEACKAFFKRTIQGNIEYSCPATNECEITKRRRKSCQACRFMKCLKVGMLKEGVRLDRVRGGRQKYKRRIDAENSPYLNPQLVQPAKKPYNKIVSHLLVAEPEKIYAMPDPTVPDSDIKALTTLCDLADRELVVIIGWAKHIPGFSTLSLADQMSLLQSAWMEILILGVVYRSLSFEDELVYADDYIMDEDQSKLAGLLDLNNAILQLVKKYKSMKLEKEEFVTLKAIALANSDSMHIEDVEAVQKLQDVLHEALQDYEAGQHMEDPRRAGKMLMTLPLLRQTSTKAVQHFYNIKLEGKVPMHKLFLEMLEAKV
Assay: peptide microarray screening for ESRRG binding (Iteration 1 and 2)
Settings: Iteration 1 primary screen; fluorescence intensity units
reported.property: Sample B (Probe) Signal

AANNYLLL ... 3,436.10
AANMLLLL ... 1,191.86
Ac-AIRLHLMG-NH2 (C-terminus assumed) ... 942.75

List Sample B (Probe) Signal for every entry below, keeping the order given.
1. AANMSLLL
2. ANNVKLLH
3. ANNLSLLH
4. NSLRQHLL
5. ANNSWLLH
6. ANNIWLLH

### Response
["1,217.01", "1,718.47", "1,220.01", "3,242.55", "1,259.63", "1,012.72"]
